Just for reference, ChEMBL document CHEMBL4261603 is where these values come from.

Listing of entries alongside the reported pIC50.
tested.target: Bcl-2-like protein 1 (Homo sapiens)
Sequence (Q07817 whole entry): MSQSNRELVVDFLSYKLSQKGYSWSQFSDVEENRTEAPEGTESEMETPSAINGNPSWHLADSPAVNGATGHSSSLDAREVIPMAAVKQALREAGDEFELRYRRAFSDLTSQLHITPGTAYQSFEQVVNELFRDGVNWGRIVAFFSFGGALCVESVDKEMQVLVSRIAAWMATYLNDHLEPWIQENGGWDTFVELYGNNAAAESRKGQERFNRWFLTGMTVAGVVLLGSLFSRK
Field pIC50 (float): negative decimal logarithm of the concentration in molar.

Completed entries (count: 4):
[[record]]
chem_smiles = "C[C@H]1[C@@H](CC(=O)N2CCN(c3ccc(C(=O)NS(=O)(=O)c4ccc(NCC5CCOCC5)c([N+](=O)[O-])c4)c(Oc4cnc5[nH]ccc5c4)c3)CC2)O[C@@H]2O[C@@]3(C)CC[C@H]4[C@H](C)CC[C@@H]1[C@@]24OO3"
recorded_result = 6.96

[[record]]
chem_smiles = "C[C@@H]1CC[C@H]2[C@@](C)(O)[C@@H](OCCN3CCN(c4ccc(C(=O)NS(=O)(=O)c5ccc(NCC6CCOCC6)c([N+](=O)[O-])c5)c(Oc5cnc6[nH]ccc6c5)c4)CC3)O[C@@H]3O[C@@]4(C)CC[C@@H]1[C@]32OO4"
recorded_result = 6.54

[[record]]
chem_smiles = "C[C@H]1[C@@H](OCCN2CCN(c3ccc(C(=O)NS(=O)(=O)c4ccc(NCC5CCOCC5)c([N+](=O)[O-])c4)c(Oc4cnc5[nH]ccc5c4)c3)CC2)O[C@@H]2O[C@@]3(C)CC[C@H]4[C@H](C)CC[C@@H]1[C@@]24O3"
recorded_result = 6.20

[[record]]
chem_smiles = "C[C@@H]1CC[C@H]2C(CN3CCN(c4ccc(C(=O)NS(=O)(=O)c5ccc(NCC6CCOCC6)c([N+](=O)[O-])c5)c(Oc5cnc6[nH]ccc6c5)c4)CC3)=C(C(F)(F)F)O[C@@H]3O[C@@]4(C)CC[C@@H]1[C@]32OO4"
recorded_result = 7.14


// switching to the query compound
-- ask pIC50 lookup needed for C[C@H]1[C@@H](OCCN2CCN(c3ccc(C(=O)NS(=O)(=O)c4ccc(NCC5CCOCC5)c([N+](=O)[O-])c4)c(Oc4cnc5[nH]ccc5c4)c3)CC2)O[C@@H]2O[C@@]3(C)CC[C@H]4[C@H](C)CC[C@@H]1[C@@]24OO3 , thanks.
-- reply 6.55

---

pIC50: −log10 of the molar value.
pIC50 data for Bcl-2-like protein 1 (Homo sapiens, UniProt Q07817) follow.

Completed entries (count: 3):
[[record]]
compound = "C[C@@H]1CC[C@@H]2[C@]34OO[C@](C)(CC[C@@H]13)O[C@H]4O[C@]2(C)C(=O)N1CCN(c2ccc(C(=O)NS(=O)(=O)c3ccc(NCC4CCOCC4)c([N+](=O)[O-])c3)c(Oc3cnc4[nH]ccc4c3)c2)CC1"
recorded_result = 6.29

[[record]]
compound = "C[C@@H]1CC[C@H]2[C@@H](C)C(OCCN3CCN(c4ccc(C(=O)NS(=O)(=O)c5ccc(NCC6CCOCC6)c([N+](=O)[O-])c5)c(Oc5cnc6[nH]ccc6c5)c4)C[C@@H]3CO)O[C@@H]3O[C@@]4(C)CC[C@@H]1[C@]32OO4 (some centres undefined)"
recorded_result = "< 6.00"

[[record]]
compound = "C[C@H]1[C@@H](CCN2CCN(c3ccc(C(=O)NS(=O)(=O)c4ccc(NCC5CCOCC5)c([N+](=O)[O-])c4)c(Oc4cnc5[nH]ccc5c4)c3)CC2)O[C@@H]2O[C@@]3(C)CC[C@H]4[C@H](C)CC[C@@H]1[C@@]24OO3"
recorded_result = "< 6.00"


-- ask pIC50 lookup needed for CO[C@H]1OC2O[C@@]3(C)CC[C@H]4[C@H](C)CC[C@@H]([C@]1(C)CC(=O)N1CCN(c5ccc(C(=O)NS(=O)(=O)c6ccc(NCC7CCOCC7)c([N+](=O)[O-])c6)c(Oc6cnc7[nH]ccc7c6)c5)CC1)[C@@]24OO3 (some centres undefined) , thanks.
-- reply < 6.00
